Where these numbers come from: the RepoRT retention time repository (doi:10.1007/s11306-011-0298-z)

assay: RP, Waters ACQUITY UPLC HSS T3, 100 × 2.1 mm, 1.8 µm, 30 °C, 0.3 mL/min, estimated dead time 0.73 min; A: water + 0.1% formic acid, pH 3; B: methanol + 0.1% formic acid, pH 3; gradient (min/%B) 0/0 6/0 56/100 60/100; conditions: stereoisomer not certain
LC retention time reference

molecule	LC retention time
Oc1ccc(C=Cc2cc(O)cc3c2C(c2cc(O)cc4c2C(c2cc(O)cc(O)c2)C(c2ccc(O)cc2)O4)C(c2ccc(O)cc2)O3)cc1 (stereo not drawn) [E-cis-miyabenol C]	32.6 min
CC(C)=CCCC(C)=CCOC1OC(CO)C(O)C(O)C1O (centres undefined) [geranyl glucoside]	36.7 min
Cc1ncc(C[n+]2csc(CCO)c2C)c(N)n1 [thiamine]	1.6 min
CCCCCCCCCCCCCCCCCCCC(=O)OC [methyl arachidate]	59.2 min
